Entries and their pEC50 values follow.
- Tested on: RSV strain A2
- Experimental Protocol: RSV HEp-2 EC50 (infectious cytopathic cell protection assay)
- Type: cell-based
- Condition Context: human respiratory syncytial virus, HEp-2, 96 h, HEp-2 cells, RSV A2, 4 days; read-out: RSV HEp-2 EC50
Please note pEC50 is a logarithmic value: minus log10 of concentration in mol/L. Answer with that number alone.

Reference set, count: 6
C[C@H](NP(=O)(OC[C@@]1(C#N)O[C@@H](c2ccc3c(N)ncnn23)[C@H](O)[C@@H]1O)Oc1ccccc1)C(=O)OCCN(C)C (stereo partly drawn)
5.22
CC(C)OC(=O)[C@H](C)N[P@](=O)(OC[C@@]1(C#N)O[C@@H](c2ccc3c(N)ncnn23)[C@H](OC(=O)C(C)(C)C)[C@@H]1O)Oc1ccccc1 (single isomer, unassigned)
7.04
CC(C)OC(=O)[C@H](C)N[P@](=O)(OC[C@@]1(C#N)O[C@@H](c2ccc3c(N)ncnn23)[C@@H]2OC(=O)O[C@@H]21)Oc1ccccc1
6.72
C[C@H](NP(=O)(OC[C@@]1(C#N)O[C@@H](c2ccc3c(N)ncnn23)[C@H](O)[C@@H]1O)Oc1ccccc1)C(=O)O[C@H]1CC[C@H](C(C)(C)C)CC1 (stereo partly drawn)
7.10
CCOC(=O)[C@H](C)N[P@](=O)(OC[C@@]1(C#N)O[C@@H](c2ccc3c(N)ncnn23)[C@@H]2OC(OCC)O[C@@H]21)Oc1ccccc1 (stereo partly drawn)
5.76
CCCCCCOC(=O)[C@H](C)NP(=O)(OC[C@@]1(C#N)O[C@@H](c2ccc3c(N)ncnn23)[C@H](O)[C@@H]1O)Oc1ccccc1 (stereo partly drawn)
6.71

Now let's try a different one.
Provide measured pEC50 value, entry: CC(C)OC(=O)[C@H](C)NP(=O)(OC[C@@]1(C#N)O[C@@H](c2ccc3c(N)ncnn23)[C@H](O)[C@@H]1O)Oc1ccccc1 (mixture of isomers)
6.33

###

Property: EC50; scope: individual molecules
- System: HRV16
- Experimental Protocol: HRV16 HELA EC50 (cytopathic effect in H1-HeLa cells)
- Format: cell-based
- Condition Context: 96 h, H1-HeLa cells, 33° C., read-out: HRV16 HELA EC50
Just the number please, in µM, no unit attached.

Give the measured EC50 for C[C@H](NP(=O)(OC[C@@]1(C#N)O[C@@H](c2ccc3c(N)ncnn23)[C@H](O)[C@@H]1O)Oc1ccccc1)C(=O)OCC(C)(C)C (stereo partly drawn) [Example 92]
0.225

Let me know recorded EC50 for CC(C)(CO)C(=O)OCCNP(=O)(OC[C@@]1(C#N)O[C@@H](c2ccc3c(N)ncnn23)[C@H](O)[C@@H]1O)Oc1ccccc1 (stereo partly drawn) [Example 126] , thanks.
27.9

Quote EC50 reported for C[C@H](N[P@](=O)(OC[C@@]1(C#N)O[C@@H](c2ccc3c(N)ncnn23)[C@@H]2OC(=O)O[C@@H]21)Oc1ccccc1)C(=O)OC1CCCCC1 [Example 168] please.
0.16

State, in one line, measured EC50 of Cc1oc(=O)oc1COC(=O)C1(NP(=O)(OC[C@@]2(C#N)O[C@@H](c3ccc4c(N)ncnn34)[C@H](O)[C@@H]2O)Oc2ccccc2)CCC1 (stereo partly drawn) [Example 125]
7.65
